System: Plasmodium berghei
ASSAY OVERVIEW: Screen against P. berghei liver stage (PbLuc), transformed with Luciferase, at 10uM
Assay type: functional, HepG2
CONDITION SUMMARY: tested at 10 uM
Hit rate of the full screen: of about 69,000 compounds, about 8,600 (12%) showed an effect of 50% or more. Only a selection was taken, and strong results are over-represented in it overall.
Provide the reported INHIBITION of each item.
Give bare numbers, in %.

[[record]]
molecule = "CCOc1cc(CN(C)CCCC#N)ccc1OC(F)F"
unit_abbreviation = "%"
reported_result = 75.2


For each of the items listed, what is its INHIBITION?
1. COc1ccc(CN(CCC#N)CCN2CCOCC2)c(OC)c1
2. O=C(NC[C@]1(O)CN(Cc2ccc(F)cc2)C[C@H]1O)c1ccccn1

[31.9, 18.9]

// for each molecule in input: emit INHIBITION
1. COc1ccc(F)cc1CSCC(=O)N(C)CCC#N
2. CCOc1cc(CNC(=O)C(C#N)c2nc(C)cs2)ccc1OC(F)F (stereo unspecified)
3. O=C(NCC1CC1)[C@H]1C[C@H]2CN(C(=O)NCC3CCCCC3)C[C@@H]1O2

[13.6, 42.8, 20.1]

* * *

System: Plasmodium berghei
ASSAY OVERVIEW: Screen against P. berghei liver stage (PbLuc), transformed with Luciferase, at 10uM
Assay type: functional, HepG2
CONDITION SUMMARY: tested at 10 uM
Among all 69,000 compounds or so, about 8,600 (12%) showed an effect of 50% or more. The list comes from a sample in which strong results are over-represented; it also holds close analogues and randomly drawn compounds.
REPORTED ENDPOINT: INHIBITION
Answer format reminder: number followed by unit.

These solved cases illustrate the format of a correct answer.
[[record]]
compound = "CCCC(=O)N1CCC(Nc2nc(O)cc(-c3ccsc3)n2)CC1"
reported_result = "10.7%"

[[record]]
compound = "COc1ccc(NC(C)c2nnnn2-c2ccccc2)cn1 (centres undefined)"
reported_result = "18.3%"

[[record]]
compound = "CNC(=O)c1cccc(CNC(C)c2cc(C)ccc2OC(F)F)c1 (centres undefined)"
reported_result = "51.5%"

[[record]]
compound = "CNC(=O)c1cccc(CNC(C)c2ccc(F)cc2N(C)C)c1 (centres undefined)"
reported_result = "66.8%"

[[record]]
compound = "c1csc(CN2CCn3c(Cn4cncn4)cnc3C2)c1"
reported_result = "20.6%"


Hey, quick one: what's INHIBITION for each of these?
1. Cn1nccc1C(=O)N1C[C@@H]2CN(S(C)(=O)=O)CCO[C@@H]2C1
2. Cc1ccnc(C(=O)N2C[C@@H]3CN(S(C)(=O)=O)CCO[C@@H]3C2)c1
3. C[C@H]1CN(C(=O)N(C)C)C[C@@]12CCN(c1ccsc1)C2=O
4. COCc1nc(C(=O)N2CCCC(n3cccn3)C2)cs1 (centres undefined)
5. CC(C)N(C)Cc1cn2c(n1)CN(Cc1ccsc1)CC2
6. COCc1nc(C(=O)N2CCCC(n3ccnc3C)C2)cs1 (centres undefined)

["40.5%", "48.2%", "36.9%", "17.8%", "-14.9%", "-23.9%"]

* * *

System: Plasmodium berghei
ASSAY OVERVIEW: Screen against P. berghei liver stage (PbLuc), transformed with Luciferase, at 10uM
Format: functional, HepG2
CONDITION SUMMARY: tested at 10 uM
Screen size: about 69,000 compounds; about 8,600 (12%) showed an effect of 50% or more. Only a selection was taken, and strong results are over-represented in it overall.
Each record is given Met if its reported INHIBITION is strictly below 10%. Records at or above 10% are given Not met.

[[record]]
compound = "Cn1ccc(C(=O)N2CCN(Cc3ccccc3F)CC2)cc1=O"
qualitative_label = "Met"

[[record]]
compound = "CCCc1n[nH]c(=O)n1[C@@H](CC)c1ccccc1"
qualitative_label = "Met"

[[record]]
compound = "CCN1CC(C(=O)N2CCN(c3cnn(C)c(=O)c3)CC2)CCC1=O (stereo not drawn)"
qualitative_label = "Met"

[[record]]
compound = "CNC(=O)[C@H]1C[C@H]2CN(Cc3ccc(OC)cc3)C[C@@H]1O2"
qualitative_label = "Met"

[[record]]
compound = "O=C(COCC1CCCO1)N1CCCN(Cc2ccccc2F)CC1 (stereo not drawn)"
qualitative_label = "Not met"

[[record]]
compound = "c1ccc2c(c1)CC(n1ccnc1-c1cc3n(n1)CCNC3)CO2 (stereo not drawn)"
qualitative_label = "Not met"

[[record]]
compound = "Cc1ccc(F)c(NS(=O)(=O)c2cc3c(c(C(=O)O)c2)OCCO3)c1"
qualitative_label = "Not met"

[[record]]
compound = "O=C(c1cccnc1O)N1CCN(Cc2ccccc2F)CC1"
qualitative_label = "Not met"


As a next step, examine the compound that follows.
I'd appreciate it if you could check whether Cn1c(C(N)=O)cc2c1CN(C(=O)C1CCCN(C3CCCC3)C1)CC2 (stereo not drawn) has INHIBITION smaller than 10%.
Not met
